experiment: Phase 1 drug-drug interaction study, vadadustat as perpetrator with adefovir (Arm 2); type: in vivo, human; conditions: both sexes, human, plasma; adefovir 10 mg alone, single oral dose, fasted; read-out: Cmax, geometric LSM, Treatment A
OUTCOME_MEASURE: Cmax
# output: numeric value plus its unit

Query: Field request: Cmax | item: Nc1ncnc2c1ncn2CCOCP(=O)(O)O [adefovir]
Reply: 17.9 ng/mL

* * *

assay: Phase 1 drug-drug interaction study, vadadustat as perpetrator with digoxin (Arm 1); assay type: in vivo, human; details: both sexes, human, plasma, oral; digoxin 0.5 mg single dose with vadadustat 600 mg QD (Day 16); read-out: AUClast, geometric LSM, Treatment V + D
OUTCOME_MEASURE: AUC(0-t)

Query: Field request: AUC(0-t) | item: C[C@H]1O[C@@H](O[C@H]2[C@@H](O)C[C@H](O[C@H]3[C@@H](O)C[C@H](O[C@H]4CC[C@@]5(C)[C@H](CC[C@@H]6[C@@H]5C[C@@H](O)[C@]5(C)[C@@H](C7=CC(=O)OC7)CC[C@]65O)C4)O[C@@H]3C)O[C@@H]2C)C[C@H](O)[C@@H]1O [digoxin]
Reply: 31.7 ng·h/mL

* * *

experiment: Phase 1 drug-drug interaction study, vadadustat as perpetrator with adefovir (Arm 2); type: in vivo, human; details: both sexes, human, plasma; adefovir 10 mg alone, single oral dose, fasted; read-out: AUClast, geometric LSM, Treatment A
OUTCOME_MEASURE: AUC(0-t) (ng·h/mL)
Give just the number in ng·h/mL; leave the unit off.

Query: Field request: AUC(0-t) | item: `Nc1ncnc2c1ncn2CCOCP(=O)(O)O`
Reply: 198

* * *

experiment: Phase I drug-drug interaction study with sevelamer carbonate; format: in vivo, human; conditions: human, plasma, oral, vadadustat 300 mg concomitantly with sevelamer carbonate 1600 mg, immediately after breakfast; mean ± SD; read-out: Clearance (ClB) (converted)
OUTCOME_MEASURE: clearance (mL/min)
Give just the number in mL/min; leave the unit off.

Query: Field request: clearance | item: `O=C(O)CNC(=O)c1ncc(-c2cccc(Cl)c2)cc1O`
Reply: 48

* * *

assay: Phase 1 drug-drug interaction study, vadadustat as perpetrator with adefovir (Arm 2); format: in vivo, human; details: both sexes, human, plasma; adefovir 10 mg alone, single oral dose, fasted; read-out: AUCinf, geometric LSM, Treatment A
OUTCOME_MEASURE: AUC(0-inf) (ng·h/mL)
Give just the number in ng·h/mL; leave the unit off.

Query: Field request: AUC(0-inf) | item: `Nc1ncnc2c1ncn2CCOCP(=O)(O)O`
Reply: 201

* * *

test: Phase I drug-drug interaction study with sevelamer carbonate; format: in vivo, human; conditions: human, plasma, oral, vadadustat 300 mg fasting, 1 hour prior to sevelamer carbonate 1600 mg; median (minimum, maximum)
OUTCOME_MEASURE: Tmax (h)
Give just the number in h; leave the unit off.

Query: Field request: Tmax | item: `O=C(O)CNC(=O)c1ncc(-c2cccc(Cl)c2)cc1O`
Reply: 1.49

* * *

experiment: Phase I drug-drug interaction study with sevelamer carbonate; type: in vivo, human; details: human, plasma, oral, vadadustat 300 mg concomitantly with sevelamer carbonate 1600 mg, immediately after breakfast; median (minimum, maximum)
OUTCOME_MEASURE: Tmax (h)
Give just the number in h; leave the unit off.

Query: Field request: Tmax | item: `O=C(O)CNC(=O)c1ncc(-c2cccc(Cl)c2)cc1O`
Reply: 3.49

* * *

assay: Phase I drug-drug interaction study with cyclosporine (Part 1, Arm 1); type: in vivo, human; conditions: both sexes, human, plasma; vadadustat 300 mg + cyclosporine 500 mg, single oral doses, fasted; read-out: AUClast, geometric LSM, Treatment V + C
OUTCOME_MEASURE: AUC(0-t) (µg·h/mL)
Give just the number in µg·h/mL; leave the unit off.

Query: Field request: AUC(0-t) | item: O=C(O)CNC(=O)c1ncc(-c2cccc(Cl)c2)cc1O [Compound 1]
Reply: 292

* * *

experiment: Phase I drug-drug interaction study with cyclosporine (Part 1, Arm 1); assay type: in vivo, human; conditions: both sexes, human, plasma; vadadustat 300 mg + cyclosporine 500 mg, single oral doses, fasted; read-out: AUCinf, geometric LSM, Treatment V + C
OUTCOME_MEASURE: AUC(0-inf) (µg·h/mL)
Give just the number in µg·h/mL; leave the unit off.

Query: Field request: AUC(0-inf) | item: `O=C(O)CNC(=O)c1ncc(-c2cccc(Cl)c2)cc1O`
Reply: 293

* * *

assay: Phase I drug-drug interaction study with sevelamer carbonate; format: in vivo, human; conditions: human, plasma, oral, concurrent vadadustat and sevelamer carbonate; read-out: geometric LS mean AUC0-∞
OUTCOME_MEASURE: AUC(0-inf)
# output: numeric value plus its unit

Query: Field request: AUC(0-inf) | item: O=C(O)CNC(=O)c1ncc(-c2cccc(Cl)c2)cc1O [Compound 1]
Reply: 114 µg·h/mL

* * *

assay: Phase I drug-drug interaction study with probenecid (Part 1, Arm 2); assay type: in vivo, human; conditions: both sexes, human, plasma; vadadustat 300 mg alone, single oral dose, fasted; read-out: Cmax, geometric LSM, Treatment V
OUTCOME_MEASURE: Cmax (ng/mL)
Give just the number in ng/mL; leave the unit off.

Query: Field request: Cmax | item: `O=C(O)CNC(=O)c1ncc(-c2cccc(Cl)c2)cc1O`
Reply: 47500

* * *

assay: Phase I drug-drug interaction study with cyclosporine (Part 1, Arm 1); format: in vivo, human; conditions: both sexes, human, plasma; vadadustat 300 mg alone, single oral dose, fasted; read-out: AUClast, geometric LSM, Treatment V
OUTCOME_MEASURE: AUC(0-t) (µg·h/mL)
Give just the number in µg·h/mL; leave the unit off.

Query: Field request: AUC(0-t) | item: `O=C(O)CNC(=O)c1ncc(-c2cccc(Cl)c2)cc1O`
Reply: 249

* * *

experiment: Phase I drug-drug interaction study with sevelamer carbonate; assay type: in vivo, human; conditions: human, plasma, oral, vadadustat 300 mg fasting, 1 hour prior to sevelamer carbonate 1600 mg; mean ± SD
OUTCOME_MEASURE: AUC(0-t) (µg·h/mL)
Give just the number in µg·h/mL; leave the unit off.

Query: Field request: AUC(0-t) | item: `O=C(O)CNC(=O)c1ncc(-c2cccc(Cl)c2)cc1O`
Reply: 152

* * *

test: Phase I drug-drug interaction study with cyclosporine (Part 1, Arm 1); assay type: in vivo, human; settings: both sexes, human, plasma; vadadustat 300 mg + cyclosporine 500 mg, single oral doses, fasted; read-out: Cmax, geometric LSM, Treatment V + C
OUTCOME_MEASURE: Cmax (ng/mL)
Give just the number in ng/mL; leave the unit off.

Query: Field request: Cmax | item: O=C(O)CNC(=O)c1ncc(-c2cccc(Cl)c2)cc1O [Compound 1]
Reply: 37100

* * *

test: Phase I drug-drug interaction study with sevelamer carbonate; assay type: in vivo, human; settings: human, plasma, oral, vadadustat 300 mg fasting, 1 hour prior to sevelamer carbonate 1600 mg; mean ± SD; read-out: Volume of distribution (Vc)
OUTCOME_MEASURE: Vd (L)
Give just the number in L; leave the unit off.

Query: Field request: Vd | item: `O=C(O)CNC(=O)c1ncc(-c2cccc(Cl)c2)cc1O`
Reply: 13.6

* * *

assay: Phase I drug-drug interaction study with sevelamer carbonate; type: in vivo, human; conditions: human, plasma, oral, vadadustat 300 mg 2 hours after sevelamer carbonate 1600 mg with breakfast; mean ± SD; read-out: Elimination half-life (t1/2) (converted)
OUTCOME_MEASURE: half-life (h)
Give just the number in h; leave the unit off.

Query: Field request: half-life | item: `O=C(O)CNC(=O)c1ncc(-c2cccc(Cl)c2)cc1O`
Reply: 5.1

* * *

experiment: Phase I drug-drug interaction study with probenecid (Part 1, Arm 2); format: in vivo, human; settings: both sexes, human, plasma; vadadustat 300 mg alone, single oral dose, fasted; read-out: AUClast, geometric LSM, Treatment V
OUTCOME_MEASURE: AUC(0-t) (µg·h/mL)
Give just the number in µg·h/mL; leave the unit off.

Query: Field request: AUC(0-t) | item: `O=C(O)CNC(=O)c1ncc(-c2cccc(Cl)c2)cc1O`
Reply: 233

* * *

Test: Phase 1 drug-drug interaction study, vadadustat as perpetrator with adefovir (Arm 2)
Type: in vivo, human
Conditions: both sexes, human, plasma, oral; adefovir 10 mg single dose with vadadustat 600 mg QD (Day 7); read-out: AUCinf, geometric LSM, Treatment V + A
Description: A Phase 1, open-label, fixed sequence study was conducted in healthy male and female subjects to evaluate vadadustat as a perpetrator of DDIs with digoxin and/or adefovir. On the morning of Day 1, subjects received a single oral dose of adefovir 10 mg after at least a 10-hour overnight fast. Subjects remained fasted for at least 4 hours after dosing. Following a 3-day washout period, subjects received vadadustat 600 mg QD beginning on Day 4 for 5 days (Days 4-8). […]
OUTCOME_MEASURE: AUC(0-inf) (ng·h/mL)
Give just the number in ng·h/mL; leave the unit off.

Query: Field request: AUC(0-inf) | item: `Nc1ncnc2c1ncn2CCOCP(=O)(O)O`
Reply: 230

The measured values listed here are drawn from patent US20240148707A1.
